# Test system: 242566-281-R-J2-PDC complex spheroid viability
# METHOD_DESCRIPTION: Anticancer human tumor 242566-281-R-J2-PDC patient-derived pancreatic carcinoma cell line growth inhibition [RAS]
# DETAILS: second compound 0.003 µM; first compound 0.3 µM; hits give low values
Field: viability, T/C. Provide a value for each of the molecules that follow.
Reply with just the number (in %).

input: Look up viability, T/C for this molecule: CCc1c2c(nc3ccc(O)cc13)-c1cc3c(c(=O)n1C2)COC(=O)[C@]3(O)CC + CCn1c(-c2cccnc2C(C)OC)c2c3cc(ccc31)N1CCOC(CC(NC(=O)C(C(C)C)N(C)C(=O)C3(F)CCN(C(=O)C#CC(C)(C)N(C)C)CC3)C(=O)N3CCCC(N3)C(=O)OCC(C)(C)C2)C1
output: 10.6

input: What does the record list as viability, T/C for CC1(C)CCC(Nc2ncc(C(F)(F)F)c(-c3c[nH]c4c(P(C)(C)=O)c(C#N)ccc34)n2)CN1 (centres undefined) + CCn1c(-c2cccnc2C(C)OC)c2c3cc(ccc31)N1CCOC(CC(NC(=O)C(C(C)C)N(C)C(=O)C3(F)CCN(C(=O)C#CC(C)(C)N(C)C)CC3)C(=O)N3CCCC(N3)C(=O)OCC(C)(C)C2)C1 ?
output: 73.6

input: Requested field: viability, T/C. Item: CC1(C)CCC(Nc2ncc(C(F)(F)F)c(-c3c[nH]c4c(P(C)(C)=O)c(C#N)ccc34)n2)CN1 (centres undefined) + CCn1c(-c2cc(N3CCN(C)CC3)cnc2C(C)OC)c2c3cc(ccc31)-c1csc(n1)CC(NC(=O)C1CC1C)C(=O)N1CCCC(N1)C(=O)OCC(C)(C)C2
output: 48.8

input: Dear colleague, I am looking for the recorded viability, T/C of the following molecule: CCc1c2c(nc3ccc(O)cc13)-c1cc3c(c(=O)n1C2)COC(=O)[C@]3(O)CC + CCn1c(-c2cc(N3CCN(C)CC3)cnc2C(C)OC)c2c3cc(ccc31)-c1csc(n1)CC(NC(=O)C1CC1C)C(=O)N1CCCC(N1)C(=O)OCC(C)(C)C2
output: 8.62

* * *

# System: 242566-281-R-J2-PDC complex spheroid viability
# METHOD_DESCRIPTION: Anticancer human tumor 242566-281-R-J2-PDC cell line growth inhibition [RAS];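 further: spheroids exposed to compound for 7 days before readout; 100% = DMSO vehicle control wells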
# DETAILS: second compound 0.316 µM; first compound 0.01 µM; hits give low values
ASSAY_ENDPOINT: viability, T/C (%)
Express your answer in %, writing the number without its unit.

input: What value of viability, T/C has been recorded for this entry: CC(C)n1nc(-c2ccc3oc(N)nc3c2)c2c(N)ncnc21 + C=CC(=O)N1CCN(c2nc(OCC3CCCN3C)nc3c(F)c(-c4nc(N)cc(C)c4C(F)(F)F)c(Cl)cc23)C(C)C1
output: 81.5

input: I have this compound here, C=CC(=O)N1CCN(c2nc(OCC3CCCN3C)nc3c(F)c(-c4nc(N)cc(C)c4C(F)(F)F)c(Cl)cc23)C(C)C1 (stereo unspecified) + C#Cc1c(F)ccc2cc(O)cc(-c3ncc4c(N5CC6CCC(C5)N6)nc(OCC56CCCN5CC(F)C6)nc4c3F)c12 , and I need its recorded viability, T/C.
output: 74.6

input: State the recorded viability, T/C for this entry: O=C(c1ccc(F)c(F)c1Nc1ccc(I)cc1F)N1CC(O)([C@@H]2CCCCN2)C1 + C#Cc1c(F)ccc2cc(O)cc(-c3ncc4c(N5CC6CCC(C5)N6)nc(OCC56CCCN5CC(F)C6)nc4c3F)c12
output: 59.7

input: I'd like to know its viability, T/C. The compound in question is Nc1ccn(C2OC(CO)C(O)C2(F)F)c(=O)n1 (stereo unspecified) + C=CC(=O)N1CCN(c2nc(OCC3CCCN3C)nc3c(F)c(-c4nc(N)cc(C)c4C(F)(F)F)c(Cl)cc23)C(C)C1
output: 160

input: Tell me the measured viability, T/C of Nc1ccn(C2OC(CO)C(O)C2(F)F)c(=O)n1 (stereo unspecified) + C#Cc1c(F)ccc2cc(O)cc(-c3ncc4c(N5CC6CCC(C5)N6)nc(OCC56CCCN5CC(F)C6)nc4c3F)c12 , please.
output: 71.1

input: # viability, T/C lookup, item C=CC(=O)Nc1cc(Nc2nccc(-c3cn(C)c4ccccc34)n2)c(OC)cc1N(C)CCN(C)C + C#Cc1c(F)ccc2cc(O)cc(-c3ncc4c(N5CC6CCC(C5)N6)nc(OCC56CCCN5CC(F)C6)nc4c3F)c12
output: 75.2

* * *

# Tested on: 242566-281-R-J2-PDC complex spheroid viability
# METHOD_DESCRIPTION: Anticancer human tumor 242566-281-R-J2-PDC cell line growth inhibition [RAS];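 further: spheroids exposed to compound for 7 days before readout; 100% = DMSO vehicle control wells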
# DETAILS: second compound 0.01 µM; first compound 0.1 µM; hits give low values
ASSAY_ENDPOINT: viability, T/C (%)
Respond numerically; units are % and should not be typed.

input: Bench note: what viability, T/C did O=C(c1ccc(F)c(F)c1Nc1ccc(I)cc1F)N1CC(O)([C@@H]2CCCCN2)C1 + C=CC(=O)N1CCN(c2nc(OCC3CCCN3C)nc3c(F)c(-c4nc(N)cc(C)c4C(F)(F)F)c(Cl)cc23)C(C)C1 show?
output: 73.5

input: Could you tell me which viability, T/C is on file for CC1(O)CCCC1n1c(=O)c(C(F)F)cc2cnc(NC3CCN(S(C)(=O)=O)CC3)nc21 (stereo not given) + C=CC(=O)N1CCN(c2nc(OCC3CCCN3C)nc3c(F)c(-c4nc(N)cc(C)c4C(F)(F)F)c(Cl)cc23)C(C)C1 ?
output: 113

input: For the molecule CC(C)NCC(C(=O)N1CCN(c2ncnc3c2C(C)CC3O)CC1)c1ccc(Cl)cc1 (stereo not given) + C=CC(=O)N1CCN(c2nc(OCC3CCCN3C)nc3c(F)c(-c4nc(N)cc(C)c4C(F)(F)F)c(Cl)cc23)C(C)C1 , what viability, T/C is on record?
output: 122

input: For the molecule shown here, C[C@@H](NC(=O)c1ncnc(N)c1Cl)c1ncc(C(=O)Nc2cc(C(F)(F)F)c(Cl)cn2)s1 + C=CC(=O)N1CCN(c2nc(OCC3CCCN3C)nc3c(F)c(-c4nc(N)cc(C)c4C(F)(F)F)c(Cl)cc23)C(C)C1 , give the reported viability, T/C.
output: 148

input: Quick one: viability, T/C of CC(Nc1ccc2c(c1)OCCn1cc(N3C(=O)OCC3C(F)F)nc1-2)C(N)=O (stereo not given) + C=CC(=O)N1CCN(c2nc(OCC3CCCN3C)nc3c(F)c(-c4nc(N)cc(C)c4C(F)(F)F)c(Cl)cc23)C(C)C1 ?
output: 115

input: Which viability, T/C value is on record for CCC(CC)c1cc(NC2CCC(N)C2)n2nccc2n1 (stereo not given) + C=CC(=O)N1CCN(c2nc(OCC3CCCN3C)nc3c(F)c(-c4nc(N)cc(C)c4C(F)(F)F)c(Cl)cc23)C(C)C1 ?
output: 146

input: I would be grateful if you could share the reported viability, T/C for CC(C)n1nc(-c2ccc3oc(N)nc3c2)c2c(N)ncnc21 + C=CC(=O)N1CCN(c2nc(OCC3CCCN3C)nc3c(F)c(-c4nc(N)cc(C)c4C(F)(F)F)c(Cl)cc23)C(C)C1 .
output: 53.6

input: Would you kindly share the measured viability, T/C for CC(=O)OC12COC1CC(O)C1(C)C(=O)C(O)C3=C(C)C(OC(=O)C(O)C(NC(=O)OC(C)(C)C)c4ccccc4)CC(O)(C(OC(=O)c4ccccc4)C21)C3(C)C (stereo not given) + C=CC(=O)N1CCN(c2nc(OCC3CCCN3C)nc3c(F)c(-c4nc(N)cc(C)c4C(F)(F)F)c(Cl)cc23)C(C)C1 ?
output: 53

input: What value of measured viability, T/C is listed for Nc1ccn(C2OC(CO)C(O)C2(F)F)c(=O)n1 (stereo not given) + C=CC(=O)N1CCN(c2nc(OCC3CCCN3C)nc3c(F)c(-c4nc(N)cc(C)c4C(F)(F)F)c(Cl)cc23)C(C)C1 ?
output: 53.8

input: # viability, T/C lookup, item C=CC(=O)Nc1cc(Nc2nccc(-c3cn(C)c4ccccc34)n2)c(OC)cc1N(C)CCN(C)C + C=CC(=O)N1CCN(c2nc(OCC3CCCN3C)nc3c(F)c(-c4nc(N)cc(C)c4C(F)(F)F)c(Cl)cc23)C(C)C1
output: 93.4

* * *

# System: 242566-281-R-J2-PDC complex spheroid viability
# METHOD_DESCRIPTION: Anticancer human tumor 242566-281-R-J2-PDC cell line growth inhibition [RAS];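 further: spheroids exposed to compound for 7 days before readout; 100% = DMSO vehicle control wells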
# DETAILS: second compound 1 µM; first compound 3.16 µM; hits give low values
ASSAY_ENDPOINT: viability, T/C (%)
Give the quantity in %, number only.

input: Could you tell me which viability, T/C is on file for NC1c2ccccc2OC12CCN(c1cnc3c(N4CCCc5ncccc54)n[nH]c3n1)CC2 (stereo not given) + C#Cc1c(F)ccc2cc(O)cc(-c3ncc4c(N5CC6CCC(C5)N6)nc(OCC56CCCN5CC(F)C6)nc4c3F)c12 ?
output: 34

input: Entry under review: CC1(O)CCCC1n1c(=O)c(C(F)F)cc2cnc(NC3CCN(S(C)(=O)=O)CC3)nc21 (stereo not given) + C=CC(=O)N1CCN(c2nc(OCC3CCCN3C)nc3c(F)c(-c4nc(N)cc(C)c4C(F)(F)F)c(Cl)cc23)C(C)C1 . Reported viability, T/C?
output: 112

input: Query (compound): CCC(CC)c1cc(NC2CCC(N)C2)n2nccc2n1 (stereo not given) + C=CC(=O)N1CCN(c2nc(OCC3CCCN3C)nc3c(F)c(-c4nc(N)cc(C)c4C(F)(F)F)c(Cl)cc23)C(C)C1 ; field requested: viability, T/C
output: 75

input: Which viability, T/C is reported for this compound? NC1c2ccccc2OC12CCN(c1cnc3c(N4CCCc5ncccc54)n[nH]c3n1)CC2 (stereo not given) + C=CC(=O)N1CCN(c2nc(OCC3CCCN3C)nc3c(F)c(-c4nc(N)cc(C)c4C(F)(F)F)c(Cl)cc23)C(C)C1
output: 91

input: Which viability, T/C is listed for C[C@@H](NC(=O)c1ncnc(N)c1Cl)c1ncc(C(=O)Nc2cc(C(F)(F)F)c(Cl)cn2)s1 + C#Cc1c(F)ccc2cc(O)cc(-c3ncc4c(N5CC6CCC(C5)N6)nc(OCC56CCCN5CC(F)C6)nc4c3F)c12 ?
output: 64.2
